Multi-source literature compilation: IC50 on Cathepsin S (Homo sapiens, UniProt P25774).
Sequence (P25774 whole entry): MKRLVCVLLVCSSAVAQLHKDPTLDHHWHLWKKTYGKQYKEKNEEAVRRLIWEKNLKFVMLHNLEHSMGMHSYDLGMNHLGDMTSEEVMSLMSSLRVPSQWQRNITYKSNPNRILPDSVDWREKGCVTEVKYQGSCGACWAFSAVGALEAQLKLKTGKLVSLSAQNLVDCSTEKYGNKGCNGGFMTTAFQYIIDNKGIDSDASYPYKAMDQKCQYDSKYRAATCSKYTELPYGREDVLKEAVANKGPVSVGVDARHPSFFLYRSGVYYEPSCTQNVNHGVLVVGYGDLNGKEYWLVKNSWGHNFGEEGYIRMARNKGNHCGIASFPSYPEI
Field: label. Allowed values: satisfied (IC50 < 0.2 µM) or not satisfied (IC50 >= 0.2 µM).

>  <compound>
C[C@H](NC(=O)OCc1ccccc1)C(=O)N[C@@H]1C(=O)N2CCO[C@H]12

>  <class-name>
not satisfied

$$$$
>  <compound>
CC(C)CC(NC(=O)c1ccccc1)C(=O)NCC#N (stereo not drawn)

>  <class-name>
satisfied

$$$$
>  <compound>
CCn1c(=O)n(C2CCN(CC(O)Cn3nc(-c4ccc(Cl)c(C)c4)c4c3CCN(C(C)=O)C4)CC2)c2ccccc21 (stereo not drawn)

>  <class-name>
not satisfied

$$$$
>  <compound>
N#CCNC(=O)[C@H](Cc1cccc(-c2ccccn2)c1)NC(=O)c1ccccc1

>  <class-name>
not satisfied

$$$$
>  <compound>
CCc1cc(C(=O)N[C@@H](Cc2cccc(Cl)c2)C(=O)NCC#N)n(C)n1

>  <class-name>
not satisfied

$$$$
>  <compound>
Cn1ccc2c(-c3ccc(OCC4CCCNC4)c(C(F)(F)F)c3)nc(C#N)nc21 (stereo not drawn)

>  <class-name>
satisfied

$$$$
>  <compound>
CCCC[C@H](NC(=O)O[C@H](Cn1cnc(-c2ccc(C(F)(F)F)cc2)c1)C(C)(C)C)C(=O)C(=O)Nc1nccs1

>  <class-name>
not satisfied

$$$$
>  <compound>
CS(=O)(=O)N1CCc2c(c(-c3ccc(Br)cc3)nn2CC(O)CN2CCC(N3c4ccc(Cl)cc4CNS3(=O)=O)CC2)C1 (stereo not drawn)

>  <class-name>
satisfied

$$$$
>  <compound>
N#CCNC(=O)[C@H](Cc1cccc(-c2cccnc2)c1)NC(=O)c1ccccc1

>  <class-name>
satisfied

$$$$
>  <compound>
CN1CCC[C@H]1C(=O)N1CCC(CCOc2ccc(-c3nc(C#N)nc4c3ccn4CC3CCOC3)cc2C#N)CC1 (stereo partly drawn)

>  <class-name>
satisfied

$$$$
>  <compound>
CN1CC[C@@](C#N)(NC(=O)[C@@H](CC(=O)N2CCOCC2)CC2CCCCC2)C1

>  <class-name>
satisfied

$$$$
>  <compound>
CN1CCC(C(=O)N2CCC(CCOc3ccc(-c4nc(C#N)nc5c4ncn5C)cc3C(F)(F)F)CC2)CC1

>  <class-name>
satisfied

$$$$
>  <compound>
CC(C)N1CCC[C@H]1C(=O)N1CCC(CCOc2ncc(-c3nc(C#N)nc4c3ncn4C)cc2C(F)(F)F)CC1

>  <class-name>
satisfied

$$$$
>  <compound>
N#Cc1nc(NC[C@H](O)c2ccccc2)nc(N2CCNCC2)n1

>  <class-name>
satisfied

$$$$
>  <compound>
CC[C@H](C(=O)N[C@H]1CCN(CC(=O)NC/C=C/S(C)(=O)=O)C1=O)c1cc(Cl)cc(Cl)c1

>  <class-name>
not satisfied

$$$$
>  <compound>
Cc1cc(C(=O)N[C@@H](Cc2cccc(Cl)c2)C(=O)NCC#N)c2cc(C)ccc2c1

>  <class-name>
not satisfied

$$$$
>  <compound>
CC(C)(C)C(=O)Nc1ccc2c(c1)C(=O)C(=O)c1ccccc1-2

>  <class-name>
not satisfied

$$$$
>  <compound>
N#CCNC(=O)[C@H](Cc1cccc(-c2nncs2)c1)NC(=O)c1ccccc1

>  <class-name>
satisfied

$$$$
